Cited source for all entries: patent US12617779B2

Test: Evaluation of conversion rate to active form in buffer solution (Experimental Example 1)
Format: physicochemical
Conditions: pH6.0, 3 hr, 37° C., 25 umol/L in buffer solution
quantityKind: Production rate of Alvocidib (%)
Write the answer as a number in %, unit excluded.

Reference set (5 entries):
Input: Item under review: CCCN(C[C@H]1CCCCN1)C(=O)Oc1cc(O)c2c(=O)cc(-c3ccccc3Cl)oc2c1[C@H]1CCN(C)C[C@H]1O [Example 6] . Reported Production rate of Alvocidib?
Output: 18.6

Input: Field entry: CCN(C[C@@H]1CCCCN1)C(=O)Oc1cc(O)c2c(=O)cc(-c3ccccc3Cl)oc2c1[C@H]1CCN(C)C[C@H]1O [Example 1, ditrifluoroacetate]
Output: 17.0

Input: Field entry: CCN(CCC1CCCCN1)C(=O)Oc1cc(O)c2c(=O)cc(-c3ccccc3Cl)oc2c1[C@H]1CCN(C)C[C@H]1O (stereo partly drawn) [Example 16]
Output: 29.3

Input: Field entry: CCCN(C[C@@H]1CCCCN1)C(=O)Oc1cc(O)c2c(=O)cc(-c3ccccc3Cl)oc2c1[C@H]1CCN(C)C[C@H]1O [Example 5]
Output: 18.6

Input: Field entry: CN1CC[C@H](c2c(OC(=O)N(C)C[C@@H]3CCCCN3)cc(O)c3c(=O)cc(-c4ccccc4Cl)oc23)[C@H](O)C1 [Example 3]
Output: 19.8

Now let's try a different one.
Input: Item under review: CCN(C[C@H]1CCCCN1)C(=O)Oc1cc(O)c2c(=O)cc(-c3ccccc3Cl)oc2c1[C@H]1CCN(C)C[C@H]1O [Example 2] . Reported Production rate of Alvocidib?
Output: 15.7

====

Test: Evaluation of conversion rate to active form in buffer solution (Experimental Example 1)
Assay type: physicochemical
Conditions: pH6.0, 0 hr, 37° C., 25 umol/L in buffer solution
Where a name gives a salt, the structure may show the parent alone.
quantityKind: Production rate of Alvocidib
Output should be the measured figure followed by the unit it is expressed in.

Reference set (4 entries):
Input: Item under review: CCN(C[C@@H]1CCCCN1)C(=O)Oc1cc(O)c2c(=O)cc(-c3ccccc3Cl)oc2c1[C@H]1CCN(C)C[C@H]1O [Example 1, ditrifluoroacetate] . Reported Production rate of Alvocidib?
Output: 0.0%

Input: Field entry: CCN(CC1CCCCN1)C(=O)Oc1cc(O)c2c(=O)cc(-c3ccccc3Cl)oc2c1[C@H]1CCN(C)C[C@H]1O (some centres unmarked) [Example 7, dihydrochloride]
Output: 1.1%

Input: Field entry: COCCN(CC1CCCCN1)C(=O)Oc1cc(O)c2c(=O)cc(-c3ccccc3Cl)oc2c1[C@H]1CCN(C)C[C@H]1O (some centres unmarked)
Output: 0.6%

Input: Field entry: CN1CC[C@H](c2c(OC(=O)N(C)CC3CCCCN3)cc(O)c3c(=O)cc(-c4ccccc4Cl)oc23)[C@H](O)C1 (some centres unmarked)
Output: 0.8%

Now let's try a different one.
Input: Item under review: CCCN(C[C@H]1CCCCN1)C(=O)Oc1cc(O)c2c(=O)cc(-c3ccccc3Cl)oc2c1[C@H]1CCN(C)C[C@H]1O . Reported Production rate of Alvocidib?
Output: 0.6%

====

Assay: Evaluation of conversion rate to active form in buffer solution (Experimental Example 1)
Assay type: physicochemical
Details: pH7.0, 2 hr
quantityKind: Residual rate (%)
Write the answer as a number in %, unit excluded.

Input: Item under review: CN1CC[C@H](c2c(O)cc(O)c3c(=O)cc(-c4ccccc4Cl)oc23)[C@H](OC(=O)CN)C1 [Comparative Example 8, reference compound] . Reported Residual rate?
Output: 32.1

Input: Field entry: CCOC(=O)O[C@@H]1CN(C)CC[C@@H]1c1c(O)cc(O)c2c(=O)cc(-c3ccccc3Cl)oc12 [Comparative Example 3, reference compound]
Output: 89.8

Input: Field entry: C[C@H](N)C(=O)O[C@@H]1CN(C)CC[C@@H]1c1c(O)cc(O)c2c(=O)cc(-c3ccccc3Cl)oc12 [Comparative Example 7, reference compound]
Output: 14.2

Now let's try a different one.
Input: Item under review: CNC(=O)Oc1cc(O)c2c(=O)cc(-c3ccccc3Cl)oc2c1[C@H]1CCN(C)C[C@H]1O [Comparative Example 2, reference compound] . Reported Residual rate?
Output: 0.0
